Record form. Attribute: Kd. Fill in for each entry.
Target: T1, human IGF2^1-67 (mature insulin-like growth factor 2) (human, UniProt P01344 25-91, biotinylated (site not stated) where immobilised on the chip (Tables 1-4))
T1 construct: mature; also called mature IGF2; biotinylated IGF2
T1 sequence (P01344 25-91): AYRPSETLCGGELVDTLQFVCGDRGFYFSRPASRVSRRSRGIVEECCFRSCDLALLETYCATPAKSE
Experiment: SPR kinetic, biotin-IGF2 on chip, pH 7.4

The recorded Kd for entry domain 11^AB5 S1600Y (receptor, See m5) MKSNEHDDCQVTNPSTGHLFDLSSLSGRAGFTAAYAKGWGVYMSICGENENCPPGVGACFGQTRISVGKANKRLRYVDQVLQLVYKDGSPCPYKSGLSYKSVISFVCRPEAGPTNRPMLISLDKQTCTLFFSWHTPLACEQATECSV equals > 200 nM

The recorded Kd for entry IGF2R domain 11^AB5 (receptor, His6-tagged soluble domain 11; also called 1542YAKGWG1547) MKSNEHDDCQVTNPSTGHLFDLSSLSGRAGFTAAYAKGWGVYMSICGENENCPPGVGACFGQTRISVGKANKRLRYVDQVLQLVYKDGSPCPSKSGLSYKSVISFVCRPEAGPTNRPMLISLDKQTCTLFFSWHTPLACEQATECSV equals 5.07 nM

The recorded Kd for entry domain 11^AB5 G1603K (receptor, See m5) MKSNEHDDCQVTNPSTGHLFDLSSLSGRAGFTAAYAKGWGVYMSICGENENCPPGVGACFGQTRISVGKANKRLRYVDQVLQLVYKDGSPCPSKSKLSYKSVISFVCRPEAGPTNRPMLISLDKQTCTLFFSWHTPLACEQATECSV equals 2.73 nM

The recorded Kd for entry domain 11^AB5 S1600A (receptor, See m5) MKSNEHDDCQVTNPSTGHLFDLSSLSGRAGFTAAYAKGWGVYMSICGENENCPPGVGACFGQTRISVGKANKRLRYVDQVLQLVYKDGSPCPAKSGLSYKSVISFVCRPEAGPTNRPMLISLDKQTCTLFFSWHTPLACEQATECSV equals 89.1 nM
